Data provenance: patent US6506772B1

The following molecules are listed with their measured Ki values.
biological target: human adenosine A2A receptor (Homo sapiens); construct: expressed in transfected cells; host or cells: CHO cells, Semliki Forest virus expression system; membrane preparation; test: Human adenosine A2A receptor [3H]-SCH-58261 binding assay; conditions: affinity to human adenosine A2A receptor; read-out: Ki HA2A
Sequence (P29274 whole entry): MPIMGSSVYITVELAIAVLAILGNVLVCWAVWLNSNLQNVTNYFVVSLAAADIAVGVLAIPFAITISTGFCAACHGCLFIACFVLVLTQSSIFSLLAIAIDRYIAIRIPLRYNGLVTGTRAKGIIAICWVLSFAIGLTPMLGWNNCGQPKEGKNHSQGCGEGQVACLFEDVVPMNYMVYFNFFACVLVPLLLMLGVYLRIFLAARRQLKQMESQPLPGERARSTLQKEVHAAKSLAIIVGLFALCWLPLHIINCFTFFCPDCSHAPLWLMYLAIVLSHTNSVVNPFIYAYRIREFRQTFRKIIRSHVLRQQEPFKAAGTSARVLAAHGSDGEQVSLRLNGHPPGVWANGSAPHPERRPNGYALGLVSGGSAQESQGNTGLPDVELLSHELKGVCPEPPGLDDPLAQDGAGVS
Response body: numeric value in nM, unit text excluded.

The examples below pair each entry with its known result.
{"molecule": "CN(Cc1ccccc1)C(=O)c1cc(N)n2nc(-c3nccs3)nc2c1", "Ki / nM": 41.7}
{"molecule": "Nc1cc(C(=O)N2CCCC3CCCCC32)cc2nc(-c3ccc(Br)o3)nn12 (stereo not drawn)", "Ki / nM": 2.9}
{"molecule": "CCN(Cc1ccccc1F)C(=O)c1cc(N)n2nc(-c3ccc[nH]3)nc2c1", "Ki / nM": 169}

Query molecule follows.
Report Ki for Cc1ccc(-c2nc3cc(C(=O)N(Cc4ccccc4)C(C)C)cc(N)n3n2)s1 tested on human adenosine A2A receptor (Homo sapiens).
9.2
